# measurement.target: SARS-CoV-2 spike protein (SARS-CoV-2, UniProt P0DTC2 14-1208)
measured.endpoint: koff (s⁻¹)
State just the number; it will be interpreted in s⁻¹.

Incoming: Report koff for antibody 455 (antibody, V domains shown) VH: QVQLVQSGAEVKKPGSSVKVSCKASGGTFSSYAISWVRQAPGQGLEWMGRIIPILGIANYAQKFQGRVTITADKSTSTAYMELSSLRSEDTAVYYCARDSIVVPAAIISGYYYYGMDVWGQGTTVTVSS VL: QSVLTQPPSVSAAPGQKVTISCSGSSSNIGNNYVSWYQQLPGTAPKLLIYDNNKRPSGIPDRFSGSKSGTSATLGITGLQTGDEADYYCGTWDSSLSAGRVFGGGTKLTVL please.
Outgoing: 9.23e-05
